- STUDY SYSTEM: T1, recombinant YFV E protein (soluble E, sE; YFV Asibi strain) (Yellow fever virus, Asibi strain, UniProt Q6DV88 286-678)
- T1 construct: also called YFV E antigen; YFV E monomer
- T1 sequence (Q6DV88 286-678): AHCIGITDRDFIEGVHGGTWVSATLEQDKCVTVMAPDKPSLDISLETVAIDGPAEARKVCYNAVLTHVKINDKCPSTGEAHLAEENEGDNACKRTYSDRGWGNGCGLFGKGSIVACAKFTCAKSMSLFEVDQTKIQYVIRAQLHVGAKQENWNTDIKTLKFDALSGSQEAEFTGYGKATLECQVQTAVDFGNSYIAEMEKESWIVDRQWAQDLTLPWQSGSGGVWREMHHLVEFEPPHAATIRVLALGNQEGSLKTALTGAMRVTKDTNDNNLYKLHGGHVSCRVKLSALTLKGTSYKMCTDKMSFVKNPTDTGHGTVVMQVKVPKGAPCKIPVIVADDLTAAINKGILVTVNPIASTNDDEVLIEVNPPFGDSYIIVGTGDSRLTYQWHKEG
- ASSAY TEXT: BLI monovalent (IgG on tip)
PARAMETER: log10 of Kd (log10 of the value in nM)
All values: base-10 log of Kd in nM.

Return reported log10 of Kd values for all items listed beneath this line.
1. ADI-45126 (antibody, V domains shown, full-length IgG; also called Antibody Number 106) VH: EVQLVESGGGLVQPGGSLRLSCAASGFTFSDHYMDWVRQAPGKGLEWVGRSTNKPNSYTTTYAASVRGRFTISRDESKNSLYLQMNSLKSDDTAVYYCVTTTVILFDYWGQGTLVTVSS VL: SYELTQPPSVSVSPGQTARITCSGDALPKKYVYWFQQKSGQAPVLVIYEDRRGPSGIPERFSGSTSGTMATLTIRGAQVEDEADYFCYSTDSSGLLGVFGGGTKLTVL
2. ADI-49161 (antibody, V domains shown, full-length IgG; also called Antibody Number 54) VH: QVQLVQSGAEVKKPGASVKVSCKASGYTFNTYAMTWVRQAPGQGLEWMGWISTYNGNTVFGQKFQGRVTLSTDTSTSTAYMELRSLTSDDTAVYYCAREDDDYYSMDVWGQGTTVTVSS VL: QPVLTQPASVSGSPGQSITISCTGTSTDVGGYNYVSWYQQYPGKAPKLIIYDVTNRPSGVSHRFSGSKSGNTASLTISGLQAEDEADYYCSSYTTTSLVIFGGGTKLTVL
3. ADI-48895 (antibody, V domains shown, full-length IgG; also called Antibody Number 18) VH: EVQLLESGGGLVKPGGSLRLSCAASGFTFSDYYMSWIRQAPGKGLEWVSYITSSGNTKYYADSVKGRFTISRDNAKNSLYLQISSLRAEDTAVYYCARDWAELTTITNYFYPWGQGTTVTVSS VL: DIQLTQSPSSVSASVGDRVTITCRASQGISSWLAWYQQKPGKAPKLLIHAASSLQSGVPSRFSGSGSGTDFTLTISSLQPEDFATYYCQQAKSFPPTFGQGTRLEIK
4. ADI-49186 (antibody, V domains shown, full-length IgG; also called Antibody Number 38) VH: QVQLVESGGGVVQPGRSLRLSCAASGFTFSNSGMHWVRQAPGQGLEWVALISYTGETKYYSDSLKARFTISRDNSKNTLYLQMSSLSNEDTAVYYCARDYYASGDGYFDYWGQGTLVTVSS VL: DIVLTQSPDSLAVSLGERATINCKSSQSVLFGSNQKSCLAWYQQKPGQSPKLLIHWASTRESGVPDRFSGSGSGTDFTLTISSLQAEDVAVYYCQQYYSTPRTFGQGTKVEIK
5. ADI-45075 (antibody, V domains shown, full-length IgG; also called Antibody Number 45) VH: EVQLLESGGGLVQPGGSLRLSCAASGFTFSSYAMSWVRQAPGKGLEWVSVISDSGGSTYYADSVKGRFTISRDNSKNTLYLQMNSLRAEDTAVYYCAKDLRGVGGWYYFDYWGQGTLVTVSS VL: EIVLTQSPSSLSASVGDRVTITCQASQDISNFLNWYQQKPGKAPKLLIYDASSLETGVPSRFSGSGSGTDFTFTISSLQPEDIATYYCQQYDNLPLTFGGGTKLEIK

Reply text:
1. 0.23
2. 0.26
3. 0.65
4. 1.09
5. 1.42

From: patent US20240218054A1
